Target: T1, 4H949-bA
T1 chain: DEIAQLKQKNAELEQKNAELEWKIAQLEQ
Assay: two-hybrid library CCNG1;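 also: natural log of median RNA to DNA barcode read ratio; higher means stronger binding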
interaction score vs -0.9: less than gives rule met; not less than gives rule not met.

# check: interaction score < -0.9 for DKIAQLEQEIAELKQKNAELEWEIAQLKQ [4H2162-bA]
rule not met

Now consider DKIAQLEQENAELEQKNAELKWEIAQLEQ [4H2233-bA] and answer again.
rule met

Same question, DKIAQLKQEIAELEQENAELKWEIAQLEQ [4H2585-bA] this time
rule met

How about this binder: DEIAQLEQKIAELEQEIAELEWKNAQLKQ [4H264-bA]
rule not met

For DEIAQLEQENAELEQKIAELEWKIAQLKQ [4H166-bA] then?
rule not met
